# assay system: β-secretase II (BACE2) (Homo sapiens, UniProt Q9Y5Z0)
# Sequence (Q9Y5Z0 63-518): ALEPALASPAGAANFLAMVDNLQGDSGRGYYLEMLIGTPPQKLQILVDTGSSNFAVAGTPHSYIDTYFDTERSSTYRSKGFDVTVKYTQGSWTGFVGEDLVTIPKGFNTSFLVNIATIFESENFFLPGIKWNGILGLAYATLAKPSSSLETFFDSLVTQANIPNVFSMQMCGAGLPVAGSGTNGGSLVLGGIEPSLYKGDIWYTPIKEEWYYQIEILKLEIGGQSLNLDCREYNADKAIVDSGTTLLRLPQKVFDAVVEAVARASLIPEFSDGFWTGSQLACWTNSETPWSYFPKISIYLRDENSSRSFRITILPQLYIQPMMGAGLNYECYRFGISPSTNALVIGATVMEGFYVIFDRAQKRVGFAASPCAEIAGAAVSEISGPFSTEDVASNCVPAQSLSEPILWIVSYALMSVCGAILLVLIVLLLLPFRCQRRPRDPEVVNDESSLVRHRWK
# assay protocol: Automated (CyclOps) biochemical assay BACE2
# condition: 37 °C, 60 min, pH 5.0; read-out: Automated assay BACE2 pIC50 (converted)
observation type: IC50 (nM)

In [3]: df
Out[3]:
                            molecule_smiles  result
0  COc1cc(Cc2cnc(OC)c3c2C[C@H]2CSC(N)=N[C@@]2(c2ccc(F)cc2F)C3)cc(OC)c1     219

a = COc1ncc(Cc2ccccc2C)c2c1C[C@]1(c3ccc(F)cc3F)N=C(N)SC[C@@H]1C2
b = COc1cccc(Cc2cnc(OC)c3c2C[C@H]2CSC(N)=N[C@@]2(c2ccc(F)cc2F)C3)c1
IN: Just curious, which one has the larger IC50 reading, a or b ? Give the label under which the chosen entry appears.
OUT: a

A = COc1ccc(Cc2cnc(OC)c3c2C[C@H]2CSC(N)=N[C@@]2(c2ccc(F)cc2F)C3)cc1
B = COc1ncc(Cc2cccc(Cl)c2)c2c1C[C@]1(c3ccc(F)cc3F)N=C(N)SC[C@@H]1C2
IN: Name the one with the greater IC50 value, either A or B as given. Give the label of your selection.
OUT: A
